details: in DMF, 325.55 K
experimental-readout: solubility (mole fraction)
Enter the number alone.

Requested field: solubility (mole fraction). Item: "c1ccc2c(c1)sc1ccccc12"
0.313

* * *

details: in sulfolane, 301.75 K
experimental-readout: solubility (mole fraction)
Enter the number alone.

Requested field: solubility (mole fraction). Item: "c1ccc2c(c1)sc1ccccc12"
0.0609

* * *

details: in DMSO, 330.15 K
experimental-readout: solubility (mole fraction)
Enter the number alone.

Requested field: solubility (mole fraction). Item: "c1ccc2c(c1)sc1ccccc12"
0.234

* * *

conditions: in sulfolane, 340.45 K
experimental-readout: solubility (mole fraction)
Enter the number alone.

Requested field: solubility (mole fraction). Item: "c1ccc2c(c1)sc1ccccc12"
0.294
